The entries below are paired with their reported Binding to CT26-TREM2 MFI.
Molecular target: T1, mouse TREM2 (mouse, UniProt Q99NH8 19-227)
T1 construct: whole, on cells
T1 sequence (looked up): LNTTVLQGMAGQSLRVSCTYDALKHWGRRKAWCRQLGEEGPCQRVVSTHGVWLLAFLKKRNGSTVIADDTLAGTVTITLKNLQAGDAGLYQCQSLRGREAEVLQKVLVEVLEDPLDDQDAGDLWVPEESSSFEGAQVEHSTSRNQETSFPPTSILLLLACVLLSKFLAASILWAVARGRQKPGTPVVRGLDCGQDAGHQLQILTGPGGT
Assay: MFI on CT26 cells over-expressing mouse TREM2 and DAP12
Give the value, in units of MFI, as a plain number.

EOS006170 (antibody, V domains shown) VH: QVQLQESGPGLVKPSGTLSLTCAVSGGSISSSNWWSWVRQPPGKGLEWIGEIYHSGSTNYNPSLKSRVTISVDKSKNQFSLKLSSVTAADTAVYYCARDTKYQAGMDVWGQGTTVTVSS VL: DIQMTQSPSSLSASVGDRVTITCQASQDISNYLNWYQQKPGKAPKLLIYDASNLATGVPSRFSGSGSGTDFTFTISSLQPEDIATYYCQQYVVFPTFGGGTKVEIK = 322

Okay, next one:
*Q* Query: Binding to CT26-TREM2 MFI; subject: EOS006177 (antibody, V domains shown) VH: QVQLQESGPGLVKPSGTLSLTCAVSGGSISDSAWWSWVRQPPGKGLEWIGEIYHDADTNYNPSLKSRVTISVDKSKNQFSLKLSSVTAADTAVYYCARDTKYWGGMDVWGQGTTVTVSS VL: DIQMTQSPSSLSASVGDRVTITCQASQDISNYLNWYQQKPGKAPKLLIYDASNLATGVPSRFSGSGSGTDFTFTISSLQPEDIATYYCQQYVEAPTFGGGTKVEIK
*A* 8680

Sourced from patent US20250282868A1
